Below, each of the compounds is paired with its reported pIC50 value.
species on record: Homo sapiens; assay: Inhibition of human Lymphocyte proliferation. The IC50 values were determined by interpolation using cubic spline determination.; format: functional
Recall that pIC50 is obtained by taking minus log10 of the concentration measured in molar.

> print(dat)
                                smiles.data  assay.readout  value.measured
1  COc1c(C)c(C)c(Br)c(O)c1C/C=C(\C)CCC(=O)O          pIC50            6.55
2  COc1c(C)c2c(c(O)c1C/C=C(\C)CCC(=O)O)C(=O)OCC2          pIC50            5.07
3  C/C(=C\Cc1c(C)c(C)c2c(c1O)C(=O)OC2)CCC(=O)O          pIC50            6.60

Inquiry: Using known records, supply pIC50 for "COc1c(C)c2c(c(O)c1C/C=C(\C)CCC(=O)O)C(=O)NC2"
Reply text: 5.82

Inquiry: Using known records, supply pIC50 for "COc1c(C)c(C)c(F)c(O)c1C/C=C(\C)CCC(=O)O"
Reply text: 5.39

Inquiry: Using known records, supply pIC50 for "COc1c(C)c(C)c(C=O)c(O)c1C/C=C(\C)CCC(=O)O"
Reply text: 5.00

Inquiry: Using known records, supply pIC50 for "COc1c(C)c(C)c(Cl)c(F)c1C/C=C(\C)CCC(=O)O"
Reply text: 5.12

Inquiry: Using known records, supply pIC50 for "C/C(=C\Cc1c(C)c(C)c(C)c([N+](=O)[O-])c1O)CCC(=O)O"
Reply text: 5.49
